- Measurement protocol: BSK_hDFCGF_Proliferation: Cell Proliferation Assessment in the BioMAP Diversity Plus: hDFCGF Assay (AID 2283059);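 also: curves fitted for both rise and fall of signal versus DMSO baseline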
- Condition details: primary human foreskin fibroblasts
Calls of active or inactive are those of the source. The calls were made as follows: active = hit-call score of the fitted dose curve at least 0.9, where 1 is the maximum; inactive = score below 0.9.
The reply should name one outcome from T = active, F = inactive

Before answering, review these 2 worked examples.
Molecule: C=CCC1=C(C)[C@@H](OC(=O)[C@@H]2[C@@H](C=C(C)C)C2(C)C)CC1=O
Class label: T
--
Molecule: CCCCC(CC)COC(=O)c1ccccc1C(=O)OCC(CC)CCCC (stereo unspecified)
Class label: T

Req: Recorded test call requested for `CC1=C(C(=O)Nc2ccccc2)SCCO1`
Resp: F

Req: Recorded test call requested for `COc1nc(NC(C)C)nc(NC(C)C)n1`
Resp: F

Req: Recorded test call requested for `COc1cnc(OC)n2nc(NS(=O)(=O)c3c(OCC(F)F)cccc3C(F)(F)F)nc12`
Resp: F

Req: Recorded test call requested for `COc1nc(C)nc(NC(=O)NS(=O)(=O)c2ccccc2CCC(F)(F)F)n1`
Resp: F

Req: Recorded test call requested for CC(C)C1(C)N=C(c2nc3ccccc3cc2C(=O)O)NC1=O (stereo unspecified)
Resp: F

---

- Measurement protocol: APR_HepG2_p53Act_24hr: Apredica 24-hour HepG2 Assay for p53 Activation (AID 2282913);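 also: p53 protein immunofluorescence averaged per cell in HepG2 with Hoechst nuclei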
- Condition details: high-content imaging, actives raise or lower the signal
Calls of active or inactive are those of the source. Rule for the calls: active = hit-call score of the fitted dose curve at least 0.9, where 1 is the maximum; inactive = score below 0.9.
The reply should name one outcome from active, inactive

Before answering, review these 3 worked examples.
Compound: N#CC(CCc1ccc(Cl)cc1)(Cn1cncn1)c1ccccc1 (stereo not given)
Class label: active

Compound: COP(=S)(OC)Oc1nc(Cl)c(Cl)cc1Cl
Class label: inactive

Compound: CCc1nn(C)c(C(=O)NCc2ccc(C(C)(C)C)cc2)c1Cl
Class label: inactive

Req: Recorded test call requested for `CS/C(C)=N/OC(=O)N(C)SN(C)C(=O)O/N=C(\C)SC`
Resp: inactive

Req: Recorded test call requested for CC1COC(Cn2cncn2)(c2ccc(Oc3ccc(Cl)cc3)cc2Cl)O1 (stereo not given)
Resp: inactive

---

- Read-out: Forkhead box O3 (FOXO3), FOXO3 (gene 2309)
- Measurement protocol: LTEA_HepaRG_FOXO3: Life Technologies and Expression Analysis (LTEA) Assay for Forkhead box O3 (FOXO3) using HepaRG (AID 2283459)
- Condition details: mRNA level, 48 h; actives raise or lower the signal
Activity calls are given as the source filed them. The calls were made as follows: active = hit-call score of the fitted dose curve at least 0.9, where 1 is the maximum; inactive = score below 0.9.
The reply should name one outcome from YES = active, NO = inactive

Before answering, review these 3 worked examples.
Compound: CC(C)C1(C)N=C(c2nc3ccccc3cc2C(=O)O)NC1=O (stereo unspecified)
Class label: NO
--
Compound: COc1nc(NC(C)C)nc(NC(C)C)n1
Class label: NO
--
Compound: CCCC1COC(Cn2cncn2)(c2ccc(Cl)cc2Cl)O1 (stereo unspecified)
Class label: NO

Req: Recorded test call requested for COC(=O)C(C)Oc1ccc(Oc2ccc(Cl)cc2Cl)cc1 (stereo unspecified)
Resp: NO

Req: Recorded test call requested for `CCc1nn(C)c(C(=O)NCc2ccc(C(C)(C)C)cc2)c1Cl`
Resp: NO

Req: Recorded test call requested for `N#Cc1cc(Br)c(O)c(Br)c1`
Resp: YES

Req: Recorded test call requested for `COc1ccc(C(c2ccc(OC)cc2)C(Cl)(Cl)Cl)cc1`
Resp: NO

Req: Recorded test call requested for Cc1c(F)c(F)c(COC(=O)C2C(/C=C(\Cl)C(F)(F)F)C2(C)C)c(F)c1F (stereo unspecified)
Resp: NO

Req: Recorded test call requested for CCCCC(CC)COC(=O)c1ccccc1C(=O)OCC(CC)CCCC (stereo unspecified)
Resp: NO

Req: Recorded test call requested for `CC(C)(C)c1ccc(CSc2cnn(C(C)(C)C)c(=O)c2Cl)cc1`
Resp: YES

Req: Recorded test call requested for `Cc1cc(Cl)ccc1OCC(=O)O`
Resp: NO

Req: Recorded test call requested for C=CC1(C)OC(=O)N(c2cc(Cl)cc(Cl)c2)C1=O (stereo unspecified)
Resp: NO

Req: Recorded test call requested for `CC(C)Oc1cc(-n2nc(C(C)(C)C)oc2=O)c(Cl)cc1Cl`
Resp: NO

Req: Recorded test call requested for `COC(=O)C=C(C)OP(=O)(OC)OC`
Resp: NO

Req: Recorded test call requested for `COC(=O)N(OC)c1ccccc1COc1ccn(-c2ccc(Cl)cc2)n1`
Resp: NO

Req: Recorded test call requested for `CCNc1nc(Cl)nc(NC(C)C)n1`
Resp: NO
